- Protocol description: Oligonucleotide concentration in liver and colon by LC-MS/MS after subcutaneous administration in CD-1 mice (Example 6)
- Type: in vivo
- Condition label: 50 mg/kg subcutaneously twice a week for 7 weeks, 48 hours after the last dose
Recorded endpoint: Oligonucleotide concentration, Colon (μg/g tissue)
Numbers only, in μg/g tissue.

> print(dat)
                                  substance                     recorded.endpoint  recorded.value
1  829994 (GGAGGCAGGGCCGCGA; 3-10-3 cEt gapmer, further chemistry not given here) [compound 829994]  Oligonucleotide concentration, Colon              11
2  790615 (CCAATGAGAATGCTTC; 3-10-3 cEt gapmer, further chemistry not given here) [compound 790615]  Oligonucleotide concentration, Colon              13

Proceeding to the next substance to report its Oligonucleotide concentration, Colon.
Would you mind telling me what Oligonucleotide concentration, Colon value was observed for 830121 (AGAATCAAGCCCTGGC; 3-10-3 cEt gapmer, further chemistry not given here) [compound 830121] ?
14

====

- System: human SMAD7 mRNA
- Protocol description: Antisense inhibition of human SMAD7 mRNA expression in Hep3B cells by 3-10-3 cEt gapmers, 10,000 nM, electroporation (Example 2)
- Format: cell-based
- Condition label: Hep3B cells, electroporation with 10,000 nM antisense oligonucleotide, approximately 24 hours, SMAD7 mRNA by RT-PCR (RTS5062), relative to untreated control cells
Strand notation (5' to 3'): a small letter for the sugar, then the base; units joined by * are phosphorothioate-linked, units joined directly phosphodiester-linked; [ ] holds rarer units or linkages, { } end groups; capitals alone tell only the bases. k = constrained ethyl (cEt); [5mC] = 5-methylcytosine; d = 2'-deoxy (DNA)
Recorded endpoint: % Inhibition (%)
Give bare numbers, in %.

> print(dat)
                                  substance  system.under.test  units  recorded.value
1  799388 (antisense kT*kT*kG*d[5mC]*dA*dG*dA*dA*dT*dT*d[5mC]*d[5mC]*dA*kG*kG*kA) [compound 799388]   human SMAD7 mRNA      %              41
2  800067 (antisense kA*kG*kG*dA*d[5mC]*d[5mC]*dT*dG*dG*dG*dA*dA*d[5mC]*k[5mC]*k[5mC]*kA) [compound 800067]   human SMAD7 mRNA      %              51

Would you mind telling me what % Inhibition value was observed for 830165 (antisense kA*k[5mC]*kA*dG*d[5mC]*dT*dG*dT*dA*d[5mC]*d[5mC]*dA*dG*kG*kG*k[5mC]) [compound 830165] ?
58

====

- Test system: human SMAD7 mRNA
- Protocol description: Antisense inhibition of human SMAD7 mRNA expression in Hep3B cells by 3-10-3 cEt gapmers, 10,000 nM, electroporation (Example 2)
- Type: cell-based
- Condition label: Hep3B cells, electroporation, 10,000 nM antisense oligonucleotide, approximately 24 hours, RTS5062, relative to untreated control cells
Strand notation (5' to 3'): a small letter for the sugar, then the base; units joined by * are phosphorothioate-linked, units joined directly phosphodiester-linked; [ ] holds rarer units or linkages, { } end groups; capitals alone tell only the bases. k = constrained ethyl (cEt); [5mC] = 5-methylcytosine; d = 2'-deoxy (DNA)
Recorded endpoint: % inhibition of SMAD7 mRNA expression (%)
Numbers only, in %.

Look over these answered cases.
> print(dat)
                                  substance                      recorded.endpoint  recorded.value
1  799301 (antisense k[5mC]*k[5mC]*kA*d[5mC]*dA*d[5mC]*dA*dT*dT*d[5mC]*d[5mC]*dA*dA*kA*kA*kG) [compound 799301]  % inhibition of SMAD7 mRNA expression              37
2  799780 (k[5mC]*k[5mC]*kA*dT*dA*dA*dA*d[5mC]*dA*dA*dA*d[5mC]*d[5mC]*kA*k[5mC]*kA; antisense) [compound 799780]  % inhibition of SMAD7 mRNA expression              28
3  799661 (antisense k[5mC]*kT*k[5mC]*d[5mC]*dA*d[5mC]*dT*dG*d[5mC]*d[5mC]*dT*d[5mC]*d[5mC]*kT*kA*k[5mC]) [compound 799661]  % inhibition of SMAD7 mRNA expression              44
4  799676 (antisense kG*kA*kA*dA*d[5mC]*d[5mC]*dA*dT*dG*dA*dG*d[5mC]*dT*kG*kT*kT) [compound 799676]  % inhibition of SMAD7 mRNA expression              64
5  799714 (antisense k[5mC]*kA*k[5mC]*d[5mC]*dA*dA*dA*dA*d[5mC]*dA*dA*dG*dT*kG*kT*k[5mC]) [compound 799714]  % inhibition of SMAD7 mRNA expression              33

Would you mind telling me what % inhibition of SMAD7 mRNA expression value was observed for 799815 (antisense k[5mC]*kT*k[5mC]*dT*dT*dG*dA*dT*dG*dA*dT*d[5mC]*d[5mC]*kT*k[5mC]*kA) [compound 799815] ?
68
